system: RT-4 (bladder cancer); assay: Cell viability IC50 (CellTiter-Glo), RT-4; type: cell-based; details: RT-4, 72 hours
Assay Readout: IC50 (nM)

- Compound: "CN1CC2CCC(C1)N2Cc1ccc(Nc2ncc(Cl)c(Nc3ccccc3S(=O)(=O)N(C)C)n2)cc1 [Compound 8]"
  Measured Target: "RT-4 (bladder cancer)"
  Measurement: 54

* * *

system: primary cells from pleural effusion of patients with small cell lung cancer; assay: Cell viability IC50 (CCK-8), summary over primary cells from pleural effusion of patients with small cell lung cancer; assay type: cell-based; details: Homo sapiens; range over primary cells of patients with small cell lung cancer (Table 4)
pIC50: −log10 of the molar value.
Assay Readout: pIC50

- Compound: "CN1CC2CCC(C1)N2Cc1ccc(Nc2ncc(Cl)c(Nc3ccccc3S(=O)(=O)N(C)C)n2)cc1 [Compound 8]"
  Assay Readout: "pIC50"
  Measurement: "7.22 to 8.57"

* * *

Test system: HT29 (colon cancer)
Test: Cell viability IC50 (CellTiter-Glo), HT29
Format: cell-based
Conditions: Homo sapiens, HT-29, HT29, 72 hours
Method: The cancer cell lines were cultured to the logarithmic growth phase according to conventional culture methods, and the cells were inoculated into a 384-well plate at a density of 2,000 cells/well in a volume of 40 μl/well. The concentrations of added compounds were: […], 1.67 μM, 0.56 μM, 0.19 μM, 0.062 μM, 0.021 μM, 0.0069 μM, 0.0023 μM, 0.00076 μM, and 0 μM. After 72 hours, cell viability was detected using the CellTiter-Glo™ Detection Kit.

- Compound Structure String: "CN1CC2CCC(C1)N2Cc1ccc(Nc2ncc(Cl)c(Nc3ccccc3S(=O)(=O)N(C)C)n2)cc1"
  IC50 / nM: 190

* * *

system: NCI-H82 cells; assay: Cell viability IC50 (CCK-8), small cell lung cancer cell line H82; assay type: cell-based; settings: Homo sapiens, NCI-H82; H82, CCK-8
As shown below, each of these compounds has a reported IC50 value.
Assay Readout: IC50 (nM)

- Compound: "CN1CCN(Cc2ccc(Nc3ncc(Cl)c(Nc4ccccc4S(=O)(=O)N(C)C)n3)cc2)CC1 [TP-0903]"
  Measurement: 35
- Compound: "CN1CC2CCC(C1)N2Cc1ccc(Nc2ncc(Cl)c(Nc3ccccc3S(=O)(=O)N(C)C)n2)cc1 [Compound 8]"
  Measurement: 5.15
- Compound: "COc1cc([C@@H]2c3cc4c(cc3[C@@H](O[C@@H]3O[C@@H]5CO[C@@H](C)O[C@H]5[C@H](O)[C@H]3O)[C@H]3COC(=O)[C@H]23)OCO4)cc(OC)c1O [Etoposide]"
  Measurement: 545

* * *

test system: Hep3B (liver cancer); experiment: Cell viability IC50 (CellTiter-Glo), Hep3B; assay type: cell-based; conditions: Homo sapiens, 72 hours
Assay Readout: IC50 (nM)

- Compound Structure String: "CN1CC2CCC(C1)N2Cc1ccc(Nc2ncc(Cl)c(Nc3ccccc3S(=O)(=O)N(C)C)n2)cc1"
  Measurement: 185

* * *

system: NCI-H1975 cells; assay: Cell viability IC50 (MTT), Gefitinib-resistant NCI-H1975 cells; conditions: Homo sapiens, NCI-H1975, 72 h, read-out: cell viability IC50
pIC50: −log10 of the molar value.
As shown below, each of these compounds has a reported pIC50 value.
Assay Readout: pIC50

- Compound Structure String: "CN1CCN(Cc2ccc(Nc3ncc(Cl)c(Nc4ccccc4S(=O)(=O)N(C)C)n3)cn2)CC1"
  Measured Target: "NCI-H1975 cells"
  Assay Readout: "pIC50"
  Measurement: 7.06
- Compound Structure String: "C[C@@H]1CN(Cc2ccc(Nc3ncc(Cl)c(Nc4ccccc4S(=O)(=O)N(C)C)n3)cc2)C[C@H](C)N1C"
  Measured Target: "NCI-H1975 cells"
  Assay Readout: "pIC50"
  Measurement: 7.67
- Compound Structure String: "CNCCN1CCc2cc(Nc3ncc(Cl)c(Nc4ccccc4S(=O)(=O)N(C)C)n3)ccc2C1"
  Measured Target: "NCI-H1975 cells"
  Assay Readout: "pIC50"
  Measurement: 7.73
